# SYSTEM TESTED: HLA DRB1*0401 (human)
# ASSAY NOTES: competition with 125I probe peptide, purified HLA
Recorded IC50 values for a group of binders are listed next.

Check out these entries, answers already filled in.
DWVMAIFGVNPTVAEGF (modifications not checked) [HPV45.E1.228 HTL epitope]    91 nM
WKHIRLECVLMYKAR (modifications not checked) [HPV31.E2.033 HTL epitope]    263 nM

Enquiry: Reported IC50 for FHSIAGQYRGQCNTC (modifications not checked) [HPV45.E6.127 HTL epitope] : what is it?
Return: 8.6 nM

Enquiry: Likewise for WKHMRLECAIYYKAR (modifications not checked) [HPV16.E2.033 HTL epitope] ?
Return: 245 nM

Enquiry: Likewise for QRFHNIRGRWTGRCM (modifications not checked) [HPV16.E6.130 HTL epitope] ?
Return: 2900 nM
